protocol: Spectroscopic properties of CF library (absorbance, emission, quantum yield, extinction coefficient)
Type: physicochemical
measurementSetup: 100 μM in ethanol, reference fluorescein
Hi! Could you tag entries with QY (Φ) below 0.4 as satisfied, and those at or above as not satisfied? Much appreciated.

Below 0.4 on QY (Φ)? Entry CC(Cc1ccccc1)NC(=O)c1ccc(-c2c3cc(Cl)c(=O)cc-3oc3cc(O)c(Cl)cc23)cc1 (stereo not shown)
not satisfied

* * *

protocol: Spectroscopic properties of CF library (absorbance, emission, quantum yield, extinction coefficient)
Type: physicochemical
measurementSetup: 100 μM in ethanol, reference fluorescein
resultType: QY (Φ)

Below, 5 compounds whose answers are already recorded.
{"columns": ["compound", "resultType", "readoutValue"],
 "data": [
  ["O=C(NCc1c(Cl)cccc1Cl)c1ccc(-c2c3cc(Cl)c(=O)cc-3oc3cc(O)c(Cl)cc23)cc1 [CF-E2]", "QY (Φ)", 0.63],
  ["CCCNC(=O)c1ccc(-c2c3cc(Cl)c(=O)cc-3oc3cc(O)c(Cl)cc23)cc1", "QY (Φ)", 0.25],
  ["CCC(C)(C)NC(=O)c1ccc(-c2c3cc(Cl)c(=O)cc-3oc3cc(O)c(Cl)cc23)cc1", "QY (Φ)", 0.35],
  ["COc1ccccc1CCNC(=O)c1ccc(-c2c3cc(Cl)c(=O)cc-3oc3cc(O)c(Cl)cc23)cc1", "QY (Φ)", 0.34],
  ["COCCN(CCOC)C(=O)c1ccc(-c2c3cc(Cl)c(=O)cc-3oc3cc(O)c(Cl)cc23)cc1", "QY (Φ)", 0.82]
]}

Item under review: CCCCCCCCCN(CCCCCCCCC)C(=O)c1ccc(-c2c3cc(Cl)c(=O)cc-3oc3cc(O)c(Cl)cc23)cc1 . Reported QY (Φ)?
0.82

Form field: reported QY (Φ) of CCCCCCCCCCCCCNC(=O)c1ccc(-c2c3cc(Cl)c(=O)cc-3oc3cc(O)c(Cl)cc23)cc1
0.26

Any idea what QY (Φ) was measured for O=C(NCc1c(F)cccc1F)c1ccc(-c2c3cc(Cl)c(=O)cc-3oc3cc(O)c(Cl)cc23)cc1 ?
0.58

What value of measured QY (Φ) is listed for CC1CCCCN1C(=O)c1ccc(-c2c3cc(Cl)c(=O)cc-3oc3cc(O)c(Cl)cc23)cc1 (stereo not shown) ?
0.65

Return reported QY (Φ); argument: CC1CCCC(NC(=O)c2ccc(-c3c4cc(Cl)c(=O)cc-4oc4cc(O)c(Cl)cc34)cc2)C1C (stereo not shown)
0.65

Any idea what QY (Φ) was measured for CC1CN(C(=O)c2ccc(-c3c4cc(Cl)c(=O)cc-4oc4cc(O)c(Cl)cc34)cc2)CC(C)O1 (stereo not shown) ?
0.47

Dear colleague, I am looking for the recorded QY (Φ) of the following compound: CCOC(=O)N1CCC(NC(=O)c2ccc(-c3c4cc(Cl)c(=O)cc-4oc4cc(O)c(Cl)cc34)cc2)CC1
0.29

* * *

protocol: Spectroscopic properties of CF library (absorbance, emission, quantum yield, extinction coefficient)
Format: physicochemical
measurementSetup: 100 μM in ethanol, reference fluorescein
The molecules listed here are annotated with their QY (Φ).
Lab note: write the figure by itself, no unit.

{"columns": ["molecule", "QY (Φ)"],
 "data": [
  ["O=C(c1ccc(-c2c3cc(Cl)c(=O)cc-3oc3cc(O)c(Cl)cc23)cc1)N1CCc2ccccc2C1 [CF-A5]", 0.75],
  ["CN(Cc1ccccc1)C(=O)c1ccc(-c2c3cc(Cl)c(=O)cc-3oc3cc(O)c(Cl)cc23)cc1 [CF-B6]", 0.77],
  ["Cc1ccc(CCNC(=O)c2ccc(-c3c4cc(Cl)c(=O)cc-4oc4cc(O)c(Cl)cc34)cc2)cc1 [CF-C10]", 0.54],
  ["CCOCCCNC(=O)c1ccc(-c2c3cc(Cl)c(=O)cc-3oc3cc(O)c(Cl)cc23)cc1 [CF-E4]", 0.47],
  ["CCCCCCCNC(=O)c1ccc(-c2c3cc(Cl)c(=O)cc-3oc3cc(O)c(Cl)cc23)cc1 [CF-B11]", 0.66]
]}

I am curious: what QY (Φ) value has been reported for O=C(NCCC(c1ccccc1)c1ccccc1)c1ccc(-c2c3cc(Cl)c(=O)cc-3oc3cc(O)c(Cl)cc23)cc1 [CF-D10] ?
0.59

For the molecule shown here, CCCCC(CC)CNC(=O)c1ccc(-c2c3cc(Cl)c(=O)cc-3oc3cc(O)c(Cl)cc23)cc1 (centres unmarked) [CF-B9] , give the reported QY (Φ).
0.60

Could you tell me which QY (Φ) is on file for COc1ccc(CCNC(=O)c2ccc(-c3c4cc(Cl)c(=O)cc-4oc4cc(O)c(Cl)cc34)cc2)cc1OC [CF-B10] ?
0.56

* * *

protocol: Spectroscopic properties of CF library (absorbance, emission, quantum yield, extinction coefficient)
Type: physicochemical
measurementSetup: 100 μM in ethanol, reference fluorescein
resultType: QY (Φ)

Worked examples, 6 molecules total:
{"columns": ["molecule", "resultType", "readoutValue"],
 "data": [
  ["CCCCCN(CCCCC)C(=O)c1ccc(-c2c3cc(Cl)c(=O)cc-3oc3cc(O)c(Cl)cc23)cc1", "QY (Φ)", 0.63],
  ["CC(C)C(C)NC(=O)c1ccc(-c2c3cc(Cl)c(=O)cc-3oc3cc(O)c(Cl)cc23)cc1 (centres unmarked)", "QY (Φ)", 0.29],
  ["CCCCN(CCCC)C(=O)c1ccc(-c2c3cc(Cl)c(=O)cc-3oc3cc(O)c(Cl)cc23)cc1", "QY (Φ)", 0.66],
  ["CN(CCc1ccccc1)C(=O)c1ccc(-c2c3cc(Cl)c(=O)cc-3oc3cc(O)c(Cl)cc23)cc1", "QY (Φ)", 0.69],
  ["O=C(NC1CC1)c1ccc(-c2c3cc(Cl)c(=O)cc-3oc3cc(O)c(Cl)cc23)cc1", "QY (Φ)", 0.53],
  ["CCCN(CCC)C(=O)c1ccc(-c2c3cc(Cl)c(=O)cc-3oc3cc(O)c(Cl)cc23)cc1", "QY (Φ)", 0.36]
]}

Request the reported QY (Φ) associated with C#CCNC(=O)c1ccc(-c2c3cc(Cl)c(=O)cc-3oc3cc(O)c(Cl)cc23)cc1
0.21

Recorded QY (Φ) for O=C(NC1CCCC1)c1ccc(-c2c3cc(Cl)c(=O)cc-3oc3cc(O)c(Cl)cc23)cc1 , please?
0.58

* * *

protocol: Spectroscopic properties of CF library (absorbance, emission, quantum yield, extinction coefficient)
Format: physicochemical
measurementSetup: 100 μM in ethanol, reference fluorescein
Items are presented alongside their recorded QY (Φ).

Reported QY (Φ), compound O=C(c1ccc(-c2c3cc(Cl)c(=O)cc-3oc3cc(O)c(Cl)cc23)cc1)N1CCCC1 [CF-B7] : ____
0.70

Consider the compound shown here: CCCN(CC1CC1)C(=O)c1ccc(-c2c3cc(Cl)c(=O)cc-3oc3cc(O)c(Cl)cc23)cc1 [CF-C6] What is its recorded QY (Φ)?
0.58

So what's the measured QY (Φ) for this one? O=C(NCCc1ccccc1Cl)c1ccc(-c2c3cc(Cl)c(=O)cc-3oc3cc(O)c(Cl)cc23)cc1 [CF-H8]
0.51

Report QY (Φ) for CCCCC(CC)COCCCNC(=O)c1ccc(-c2c3cc(Cl)c(=O)cc-3oc3cc(O)c(Cl)cc23)cc1 (stereo not drawn) [CF-B5] please.
0.54

Fill blank: measured QY (Φ) of the compound CCCCCCCCCCCCCCCCCCNC(=O)c1ccc(-c2c3cc(Cl)c(=O)cc-3oc3cc(O)c(Cl)cc23)cc1 [CF-D6] is ____.
0.32

Given CCCCCCN(C)C(=O)c1ccc(-c2c3cc(Cl)c(=O)cc-3oc3cc(O)c(Cl)cc23)cc1 [CF-F10] , state its recorded QY (Φ).
0.35

Which measured QY (Φ) value corresponds to COCCNC(=O)c1ccc(-c2c3cc(Cl)c(=O)cc-3oc3cc(O)c(Cl)cc23)cc1 [CF-B3] ?
0.32

Need QY (Φ) of CCN(Cc1ccccc1)C(=O)c1ccc(-c2c3cc(Cl)c(=O)cc-3oc3cc(O)c(Cl)cc23)cc1 [CF-D5] , thanks.
0.66

What does the record list as QY (Φ) for O=C(NCc1ccc(OC(F)(F)F)cc1)c1ccc(-c2c3cc(Cl)c(=O)cc-3oc3cc(O)c(Cl)cc23)cc1 [CF-A8] ?
0.37

* * *

protocol: Spectroscopic properties of CF library (absorbance, emission, quantum yield, extinction coefficient)
Assay type: physicochemical
measurementSetup: 100 μM in ethanol, reference fluorescein
Method: All the chemicals and solvents were purchased from Sigma Aldrich, Alfa Aesar, Fluka, MERCK, Tocris or Acros, and used without further purification. […] High resolution mass spectrometry (HRMS) data was recorded on a Micro mass VG 7035 (Mass Spectrometry Laboratory at National University of Singapore (NUS)). Spectroscopic and quantum yield data were measured on spectroscopic measurements, performed on a fluorometer and UV/VIS instrument, Synergy 4 of Bioteck Company. […]
Here the recorded QY (Φ) is given for each entry.
Reply with the value as a number alone.

Consider the compound CCCCNC(=O)c1ccc(-c2c3cc(Cl)c(=O)cc-3oc3cc(O)c(Cl)cc23)cc1 [CF-G7] and give its measured QY (Φ).
0.41

Look at this compound and give its reported QY (Φ). CCCCCCCCCCCCCCNC(=O)c1ccc(-c2c3cc(Cl)c(=O)cc-3oc3cc(O)c(Cl)cc23)cc1 [CF-A2]
0.42
